target: mIDH1 R132H (Homo sapiens, UniProt O75874, R132H); construct: expressed in transfected cells; host or cells: U87MG; experiment: Detection of 2-HG in supernatant of U87-IDH1 R132H cells; assay type: cell-based; conditions: U-87 MG; 1 nM compound, 72 h, U87MG cells overexpressing mIDH1 R132H, LC-MS-MS; read-out: Inhibition rate on 2-HG in the supernatant of U87-IDH R132H cells, 1 nM
Sequence (O75874 whole entry R132H): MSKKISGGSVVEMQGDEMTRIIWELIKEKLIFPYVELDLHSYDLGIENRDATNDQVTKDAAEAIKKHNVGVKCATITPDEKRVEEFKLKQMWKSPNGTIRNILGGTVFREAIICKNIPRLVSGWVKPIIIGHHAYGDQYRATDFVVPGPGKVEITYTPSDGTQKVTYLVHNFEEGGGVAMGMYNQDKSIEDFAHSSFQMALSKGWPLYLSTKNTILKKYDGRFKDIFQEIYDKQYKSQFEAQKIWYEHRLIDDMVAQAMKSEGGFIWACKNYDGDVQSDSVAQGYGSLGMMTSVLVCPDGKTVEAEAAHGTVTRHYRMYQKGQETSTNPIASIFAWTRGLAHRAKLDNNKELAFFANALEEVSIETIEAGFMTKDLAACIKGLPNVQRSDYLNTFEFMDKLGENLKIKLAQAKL
resultType: inhibition at 0.001 µM

Some solved entries appear below for comparison.
C=CC(=O)N1CCN(C(CC2CCC2)c2ccc([C@H](C)Nc3ncc4[nH]c(=O)n(CC)c4n3)cc2)CC1 (stereo partly shown); 30 to 60%
C=CC(=O)N1CCN(C(CC2(C)CC2)c2ccc([C@H](C)Nc3ncc4[nH]c(=O)n(CC)c4n3)cc2)CC1 (stereo partly shown); 30 to 60%
C=CC(=O)NC1CN(C(CC2CC2)c2ccc([C@H](C)Nc3ncc4[nH]c(=O)n(CC)c4n3)cc2)C1 (stereo partly shown); 60 to 90%
C=CC(=O)N1CCN(C(CC(C)C)c2ccc([C@H](C)Nc3ncc4[nH]c(=O)n(CC)c4n3)cc2)CC1 (stereo partly shown); 30 to 60%
C=CC(=O)N1CC2(CCN(C(CC3CC3)c3ccc([C@H](C)Nc4ncc5[nH]c(=O)n(CC)c5n4)cc3)CC2)C1 (stereo partly shown); 60 to 90%
C=CC(=O)N1CCN(C(CC)(CC)c2ccc([C@H](C)Nc3ncc4[nH]c(=O)n(CC)c4n3)cc2)CC1; 30 to 60%
C=CC(=O)N1CCN(C(CC2CC2)c2ccc([C@H](C)Nc3ncc4[nH]c(=O)n(C)c4n3)cc2)CC1 (stereo partly shown); 30 to 60%
C=CC(=O)N1CCN(C(CC2CC2)c2ccc([C@H](C)Nc3ncc4[nH]c(=O)n(C(C)C)c4n3)cc2)CC1 (stereo partly shown); 30 to 60%
C=CC(=O)N1CCN(C(CC2CC2)c2ccc([C@H](C)Nc3ncc4[nH]c(=O)n(C5CC5)c4n3)cc2)CC1 (stereo partly shown); 30 to 60%
C=CC(=O)N1CCC2(C1)CN(C(CC1CC1)c1ccc([C@H](C)Nc3ncc4[nH]c(=O)n(CC)c4n3)cc1)C2 (stereo partly shown); 30 to 60%

What the record says about C=CC(=O)N1CCC(N(C)C(CC2CC2)c2ccc([C@H](C)Nc3ncc4[nH]c(=O)n(CC)c4n3)cc2)CC1 (stereo partly shown) : inhibition at 0.001 µM is 30 to 60%

Short answer for C=CC(=O)N1CCN(C(CC2CC2)c2ccc([C@H](C)Nc3ncc4c(n3)n(CC)c(=O)n4C)cc2)CC1 (stereo partly shown) : inhibition at 0.001 µM was < 30%

Looking up C=CC(=O)N1CCC2(CC1)CN(C(CC1CC1)c1ccc([C@H](C)Nc3ncc4[nH]c(=O)n(CC)c4n3)cc1)C2 (stereo partly shown) , I found its inhibition at 0.001 µM recorded as 30 to 60%

Item: C=CC(=O)N1CCN(C(CC23CC(C2)C3)c2ccc([C@H](C)Nc3ncc4[nH]c(=O)n(C5CCCC5)c4n3)cc2)CC1 (stereo partly shown) | inhibition at 0.001 µM: 30 to 60%

Record C=CC(=O)N1CCN(C2(c3ccc([C@H](C)Nc4ncc5[nH]c(=O)n(CC)c5n4)cc3)CCCC2)CC1 . Reported inhibition at 0.001 µM: 30 to 60%

Reported inhibition at 0.001 µM ( C=CC(=O)N1CCN(C(CC2CC2)c2ccc(C3(Nc4ncc5[nH]c(=O)n(C(C)C)c5n4)CC3)cc2)CC1 (stereo not shown) ) = < 30%
